Overview of recorded selectivity ratio for various molecules
- Method Notes: Selectivity index, ratio of IC50 for human THP-1 cells to IC50 for leishmanicidal activity against Leishmania donovani 9515 (MHOM/IN/95/9151) amastigote
- Type: toxicity, cell-based
- Recorded Conditions: read-out: Ratio IC50
Returns: the value as a bare number; no unit string appended.

INSERT INTO results (structure, measurement_label, data_value) VALUES
  ('C#CCn1cc(/C=N\N=C\c2ccc([N+](=O)[O-])cc2)c2cc([N+](=O)[O-])ccc21', 'selectivity ratio', 7),
  ('C#CCn1cc(/C=N/N=C\C=C(C)C)c2cc([N+](=O)[O-])ccc21', 'selectivity ratio', 90),
  ('C#CCn1cc(\C=N/N=C/C=C/c2ccccc2)c2cc([N+](=O)[O-])ccc21', 'selectivity ratio', 52);

Qu. Would you kindly share the measured selectivity ratio for C#CCn1cc(/C=N\N=C\c2cccs2)c2cc([N+](=O)[O-])ccc21 ?
Ans. 25

Qu. One more molecule: C#CCn1cc(/C=N\N=C\c2ccc([N+](=O)[O-])o2)c2cc([N+](=O)[O-])ccc21
Ans. 20

* * *

- Method Notes: Selectivity index, ratio of CC50 for MDBK to IC50 for Trypanosoma congolense IL3000
- Format: toxicity, cell-based
- Recorded Conditions: cattle, MDBK cells; read-out: Ratio CC50/IC50
Measurement Label: selectivity ratio

Look over these answered cases.
INSERT INTO assay_data (structure, measurement_label, data_value) VALUES
  ('C#CCn1cc(/C=N\N=C\c2ccc([N+](=O)[O-])s2)c2cc([N+](=O)[O-])ccc21', 'selectivity ratio', '> 2950'),
  ('C#CCn1cc(\C=N/N=C/C=C/c2ccccc2)c2cc([N+](=O)[O-])ccc21', 'selectivity ratio', '> 29.9');

Qu. Would you kindly share the measured selectivity ratio for C#CCn1cc(/C=N\N=C\c2cnc[nH]2)c2cc([N+](=O)[O-])ccc21 ?
Ans. > 21

Qu. One more compound: C#CCn1cc(/C=N\N=C\c2cccs2)c2cc([N+](=O)[O-])ccc21
Ans. > 75.4

* * *

- Method Notes: Selectivity index, ratio of IC50 for human THP-1 cells to IC50 for static antileishmanial activity against Leishmania donovani 9515 (MHOM/IN/95/9151) amastigote
- Assay type: toxicity, cell-based
- Recorded Conditions: read-out: Ratio IC50
Entry flag: TRUE if selectivity ratio reaches 80; FALSE if it does not.

INSERT INTO results (structure, discrete_label) VALUES
  ('C#CCn1cc(/C=N\N=C\c2ccc([N+](=O)[O-])s2)c2cc([N+](=O)[O-])ccc21', 'FALSE'),
  ('C#CCn1cc(/C=N\N=C\c2ccc([N+](=O)[O-])o2)c2cc([N+](=O)[O-])ccc21', 'FALSE'),
  ('C#CCn1cc(/C=N\N=C\c2ccc([N+](=O)[O-])cc2)c2cc([N+](=O)[O-])ccc21', 'FALSE'),
  ('C#CCn1cc(/C=N\N=C\c2ccco2)c2cc([N+](=O)[O-])ccc21', 'TRUE'),
  ('C#CCn1cc(/C=N\N=C\c2cccnc2)c2cc([N+](=O)[O-])ccc21', 'FALSE');

API: the following record is the query input.
Qu. Hi, just wondering whether C#CCn1cc(/C=N/N=C\C=C(C)C)c2cc([N+](=O)[O-])ccc21 shows selectivity ratio of 80 or higher.
Ans. TRUE

* * *

- Test system: Trypanosoma congolense
- Method Notes: Trypanocidal activity against Trypanosoma congolense IL3000 incubated for 72 hrs by CellTiter-Glo reagent based […] analysis
- Type: functional, organism-based
- Recorded Conditions: IL3000, 72 h
Measurement Label: IC50 (µM)
Field: numeric (µM). Do not append units.

INSERT INTO measurements (molecule, test_system, measurement_label, data_value) VALUES
  ('C#CCn1cc(/C=N\N=C\c2ccc([N+](=O)[O-])cc2)c2cc([N+](=O)[O-])ccc21', 'Trypanosoma congolense', 'IC50', 8.84),
  ('N=C(N)c1ccc(OCCCCCOc2ccc(C(=N)N)cc2)cc1 [PENTAMIDINE]', 'Trypanosoma congolense', 'IC50', 0.33),
  ('C#CCn1cc(/C=N\N=C\c2cccs2)c2cc([N+](=O)[O-])ccc21', 'Trypanosoma congolense', 'IC50', 3.94);

// next item, IC50 requested
Qu. Would you kindly share the measured IC50 for NCCCC(N)(C(=O)O)C(F)F (stereo not given) [EFLORNITHINE] ?
Ans. 16.1

* * *

Overview of recorded selectivity ratio for various compounds
- Method Notes: Selectivity index, ratio of IC50 for african green monkey Vero cells to IC50 for leishmanicidal activity against Leishmania donovani 9515 (MHOM/IN/95/9151) amastigote
- Assay type: toxicity, cell-based
- Recorded Conditions: read-out: Ratio IC50

Qu. Would you kindly share the measured selectivity ratio for C#CCn1cc(/C=N\N=C\c2ccccn2)c2cc([N+](=O)[O-])ccc21 ?
Ans. > 30

Qu. One more compound: C#CCn1cc(/C=N\N=C\c2cccnc2)c2cc([N+](=O)[O-])ccc21
Ans. > 68

Qu. One more compound: C#CCn1cc(/C=N\N=C\c2ccco2)c2cc([N+](=O)[O-])ccc21
Ans. > 39

* * *

- System: Trypanosoma evansi
- Method Notes: Trypanocidal activity against Trypanosoma evansi Tansui incubated for 72 hrs by CellTiter-Glo reagent based […] analysis
- Format: functional, organism-based
Overview of recorded IC50 for various molecules

Look over these answered cases.
INSERT INTO assay_data (structure, test_system, measurement_label, data_value) VALUES
  ('C#CCn1cc(/C=N\N=C/C)c2cc([N+](=O)[O-])ccc21', 'Trypanosoma evansi', 'IC50', '> 93.2 µM'),
  ('C#CCn1ccc2cc([N+](=O)[O-])ccc21', 'Trypanosoma evansi', 'IC50', '> 125 µM');

// next item, IC50 requested
Qu. # query: IC50 | item C#CCn1cc(/C=N\N=C/CCC)c2cc([N+](=O)[O-])ccc21 | system: Trypanosoma evansi
Ans. > 84.4 µM

* * *

- Tested on: Trypanosoma evansi
- Method Notes: Trypanocidal activity against Trypanosoma evansi Tansui incubated for 72 hrs by CellTiter-Glo reagent based […] analysis
- Format: functional, organism-based
pIC50: −log10 of the molar value.
Overview of recorded pIC50 for various molecules

Look over these answered cases.
INSERT INTO measurements (molecule, test_system, data_value) VALUES
  ('C#CCn1cc(C=O)c2cc([N+](=O)[O-])ccc21', 'Trypanosoma evansi', '< 3.96'),
  ('C#CCn1cc(/C=N\N=C\c2nccn2C)c2cc([N+](=O)[O-])ccc21', 'Trypanosoma evansi', '< 4.12'),
  ('C#CCn1cc(/C=N\N=C\c2ccco2)c2cc([N+](=O)[O-])ccc21', 'Trypanosoma evansi', '< 4.11'),
  ('C#CCn1cc(/C=N\N=C\c2ccc([N+](=O)[O-])s2)c2cc([N+](=O)[O-])ccc21', 'Trypanosoma evansi', 6.52),
  ('C#CCn1cc(/C=N\N=C\c2cccn2C)c2cc([N+](=O)[O-])ccc21', 'Trypanosoma evansi', '< 4.13'),
  ('C#CCn1cc(\C=N/N=C/C(C)=C\C)c2cc([N+](=O)[O-])ccc21', 'Trypanosoma evansi', '< 4.09');

// next item, pIC50 requested
Qu. Would you kindly share the measured pIC50 for N=C(N)c1ccc(OCCCCCOc2ccc(C(=N)N)cc2)cc1 [PENTAMIDINE] ?
Ans. 9.00

* * *

- Method Notes: Selectivity index, ratio of CC50 for MDBK to IC50 for Trypanosoma congolense IL3000
- Type: toxicity, cell-based
- Recorded Conditions: cattle, MDBK cells; read-out: Ratio CC50/IC50
Measurement Label: selectivity ratio

Look over these answered cases.
INSERT INTO measurements (structure, data_value) VALUES
  ('C#CCn1cc(/C=N\N=C\c2nccn2C)c2cc([N+](=O)[O-])ccc21', '> 23.5'),
  ('C#CCn1cc(/C=N\N=C\c2ccc([N+](=O)[O-])cc2)c2cc([N+](=O)[O-])ccc21', '> 30.1');

// next item, selectivity ratio requested
Qu. Would you kindly share the measured selectivity ratio for C#CCn1cc(/C=N\N=C\c2ccc([N+](=O)[O-])o2)c2cc([N+](=O)[O-])ccc21 ?
Ans. > 3280

* * *

- Method Notes: Selectivity index, ratio of CC50 for MDBK to IC50 for Trypanosoma brucei gambiense IL1922
- Type: toxicity, cell-based
- Recorded Conditions: cattle, MDBK cells; read-out: Ratio CC50/IC50
Measurement Label: selectivity ratio

Look over these answered cases.
INSERT INTO assay_data (structure, measurement_label, data_value) VALUES
  ('C#CCn1cc(/C=N\N=C\c2ccc([N+](=O)[O-])o2)c2cc([N+](=O)[O-])ccc21', 'selectivity ratio', '> 405'),
  ('C#CCn1cc(/C=N\N=C/CC)c2cc([N+](=O)[O-])ccc21', 'selectivity ratio', '> 6.86'),
  ('C#CCn1cc(/C=N\N=C\C2CCCCC2)c2cc([N+](=O)[O-])ccc21', 'selectivity ratio', '> 18.4');

// next item, selectivity ratio requested
Qu. Would you kindly share the measured selectivity ratio for C#CCn1cc(/C=N\N=C\c2ccc([N+](=O)[O-])s2)c2cc([N+](=O)[O-])ccc21 ?
Ans. > 1070

The measurements presented in this section are drawn from ChEMBL document CHEMBL6083269.
